# ED50 per record follows
System: Mus musculus
test: In vivo analgesic activity in the mouse tail-flick assay following s.c. administration.
Format: functional
condition-label: sc
Phrase the answer as number then unit, nothing more needed.

Some molecules with known ED50 results, for comparison:
molecule: C[C@@H](NC(=O)[C@@H](N)Cc1ccc(O)cc1)C(=O)N[C@@H](Cc1ccccc1)C(=O)NCNC(=O)Cc1ccccc1
ED50: 27.8 µmol/kg
--
molecule: C[C@@H](NC(=O)[C@@H](N)Cc1ccc(O)cc1)C(=O)N[C@@H](Cc1ccccc1)C(=O)NCC(=O)N[C@@H](Cc1ccc(O)cc1)C(=O)N1CCC[C@H]1C(=O)N[C@@H](CO)C(N)=O [DERMORPHIN]
ED50: 2.75 µmol/kg
--
molecule: C[C@@H](NC(=O)[C@@H](N)Cc1ccc(O)cc1)C(=O)N[C@@H](Cc1ccccc1)C(=O)NCNC(=O)C12CC3CC(CC(C3)C1)C2
ED50: 21.7 µmol/kg

Query molecule follows.
Which measured ED50 value corresponds to CN1CC[C@]23c4c5ccc(O)c4O[C@H]2[C@@H](O)C=C[C@H]3[C@H]1C5 [MORPHINE] ? 10.9 µmol/kg

###

# half-life per record follows
test: Half-life was determined
Type: ADME
condition-label: human
Numeric only. Scale: min

Some molecules with known half-life results, for comparison:
molecule: C[C@@H](NC(=O)[C@@H](N)Cc1ccc(O)cc1)C(=O)N(C)[C@@H](Cc1ccccc1)NC(=O)CNC(=O)Cc1ccccc1
half-life [min]: 45
--
molecule: CCONC(=O)CC(=O)N[C@H](Cc1ccccc1)NC(=O)[C@@H](C)NC(=O)[C@@H](N)Cc1ccc(O)cc1
half-life [min]: 30

Query molecule follows.
Which measured half-life value corresponds to C[C@@H](NC(=O)[C@@H](N)Cc1ccc(O)cc1)C(=O)N[C@@H](Cc1ccccc1)C(=O)NCC(=O)N[C@@H](Cc1ccc(O)cc1)C(=O)N1CCC[C@H]1C(=O)N[C@@H](CO)C(N)=O [DERMORPHIN] ? 40

###

Test system: Mus musculus
test: In vivo analgesic activity in the mouse tail-flick assay following i.c.v. administration.
Format: functional
Sorting guide: entries reporting ED50 beneath 90 pmol/mouse go in the criterion met pile, the rest go in the criterion not met pile.

Some solved entries appear below for comparison.
compound: C[C@@H](NC(=O)[C@@H](N)Cc1ccc(O)cc1)C(=O)N(C)[C@@H](Cc1ccccc1)NC(=O)CNC=O
tested-on: Mus musculus
class-label: criterion not met
//
compound: CN1CC[C@]23c4c5ccc(O)c4O[C@H]2[C@@H](O)C=C[C@H]3[C@H]1C5
tested-on: Mus musculus
class-label: criterion not met
//
compound: C[C@@H](NC(=O)[C@@H](N)Cc1ccc(O)cc1)C(=O)N[C@@H](Cc1ccccc1)C(=O)NCC(N)=O
tested-on: Mus musculus
class-label: criterion met
//
compound: C[C@@H](NC(=O)[C@@H](N)Cc1ccc(O)cc1)C(=O)N[C@@H](Cc1ccccc1)C(=O)NCC(=O)NO
tested-on: Mus musculus
class-label: criterion not met
//
compound: C[C@@H](NC(=O)[C@@H](N)Cc1ccc(O)cc1)C(=O)N(C)[C@@H](Cc1ccccc1)NC(=O)CNC(=O)C12CC3CC(CC(C3)C1)C2
tested-on: Mus musculus
class-label: criterion not met

Here's an entry: C[C@@H](NC(=O)[C@@H](N)Cc1ccc(O)cc1)C(=O)N[C@@H](Cc1ccccc1)NC(=O)CC(=O)NO . Is its ED50 below 90 pmol/mouse? criterion not met

Here's an entry: CC(NC(=O)CNC(=O)[C@H](Cc1ccccc1)NC(=O)[C@@H](C)NC(=O)[C@@H](N)Cc1ccc(O)cc1)c1ccccc1 (some centres undefined) . Is its ED50 below 90 pmol/mouse? criterion met

Here's an entry: C[C@@H](NC(=O)[C@@H](N)Cc1ccc(O)cc1)C(=O)N[C@@H](Cc1ccccc1)C(=O)NCC(=O)N[C@@H](Cc1ccc(O)cc1)C(=O)N1CCC[C@H]1C(=O)N[C@@H](CO)C(N)=O . Is its ED50 below 90 pmol/mouse? criterion met

Here's an entry: C[C@@H](NC(=O)[C@@H](N)Cc1ccc(O)cc1)C(=O)N[C@@H](Cc1ccccc1)NC(=O)CC(=O)NCc1ccccc1 . Is its ED50 below 90 pmol/mouse? criterion not met

Here's an entry: C[C@@H](NC(=O)[C@@H](N)Cc1ccc(O)cc1)C(=O)N[C@@H](Cc1ccccc1)C(=O)NCNC(=O)Cc1ccccc1 . Is its ED50 below 90 pmol/mouse? criterion met

Here's an entry: C[C@@H](NC(=O)[C@@H](N)Cc1ccc(O)cc1)C(=O)N[C@@H](Cc1ccccc1)C(=O)NCC(=O)NCc1ccccc1 . Is its ED50 below 90 pmol/mouse? criterion met

Here's an entry: CC(C(=O)NCC(=O)N[C@H](Cc1ccccc1)N(C)C(=O)[C@@H](C)NC(=O)[C@@H](N)Cc1ccc(O)cc1)c1ccccc1 (some centres undefined) . Is its ED50 below 90 pmol/mouse? criterion not met

Here's an entry: CCONC(=O)CNC(=O)[C@H](Cc1ccccc1)NC(=O)[C@@H](C)NC(=O)[C@@H](N)Cc1ccc(O)cc1 . Is its ED50 below 90 pmol/mouse? criterion not met
